Test: chemical genetic growth profiling, strain panel (AID 1159580);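 further: tested at 20 µM; growth read once vehicle control cultures reached saturation at 30 °C; 1 = growth at the plate median or of vehicle wells; lower values mean less growth of the strain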
Conditions: S. cerevisiae deletion strains, growth OD, locus YPL240C, strain hsp82, active compounds read low
The campaign covered roughly 5,500 compounds. About 2,000 (36%) were called active. Another 18% or so got no clear call; they are omitted. Some of the results follow.
normalized growth: recorded values
Just the number.

| COMPOUND | normalized growth |
| --- | --- |
| COc1cc(OC)c(OC)cc1C=O | 0.992 |
| COc1cc([C@@H]2c3cc4c(cc3[C@H](OC(C)=O)[C@H]3COC(=O)[C@@H]23)OCO4)cc(OC)c1OC | 0.993 |
| C[C@]12C=CC(=O)C=C1CCC1C3C[C@@H](O)[C@](O)(C(=O)CO)[C@@]3(C)C[C@H](O)[C@@]12F (stereo not given in full) | 0.986 |
| CCCCCC1C(=O)CCC1CC(=O)OC (stereo not given) | 0.969 |

Next:
So, CN[C@@H]1[C@H](OC2[C@H](O[C@H]3[C@H](O)[C@@H](O)[C@H](N=C(N)N)[C@@H](O)[C@@H]3N=C(N)N)O[C@@H](C)[C@]2(O)C=O)O[C@@H](CO)[C@H](O)[C@H]1O (stereo not given in full) ? Its normalized growth was 1.01

* * *

Assay: chemical genetic growth profiling, strain panel (AID 1159580)
Conditions: S. cerevisiae deletion strains, growth OD, locus YJL115W, strain asf1, active compounds read low
In all, about 5,500 compounds went through this assay and about 2,000 (36%) were called active. About 18% were inconclusive and are not listed. The list shows a part of the results.
normalized growth: recorded values

So, CN[C@@H]1[C@H](OC2[C@H](O[C@H]3[C@H](O)[C@@H](O)[C@H](N=C(N)N)[C@@H](O)[C@@H]3N=C(N)N)O[C@@H](C)[C@]2(O)C=O)O[C@@H](CO)[C@H](O)[C@H]1O (some centres undefined) ? Its normalized growth was 1.01 (inactive)

So, C[C@@H]1CC2C3CCC4=CC(=O)C=C[C@]4(C)[C@@]3(F)[C@@H](O)C[C@]2(C)[C@H]1C(=O)CO (some centres undefined) ? Its normalized growth was 0.996 (inactive)

* * *

Experiment: chemical genetic growth profiling, strain panel (AID 1159580)
Conditions: S. cerevisiae deletion strains, growth OD, locus YOL147C, strain pex11, active compounds read low
About 2,000 (36%) of roughly 5,500 compounds were called active. Roughly 18% stayed inconclusive and do not appear here. The list shows a part of the results.
normalized growth: recorded values
Just the number.

Below, each entry is followed by its recorded normalized growth result.
| COMPOUND | normalized growth |
| --- | --- |
| Nc1cc(-c2ccncc2)c[nH]c1=O | 0.979 |
| N[C@@H]1[C@@H](O)[C@H](O)[C@@H](CO)O[C@H]1O | 1.01 |
| COc1cc(S(C)=O)ccc1-c1nc2ncccc2[nH]1 (stereo not given) | 0.982 |
| CC(=O)O[C@H]1CC[C@]2(C)C3C(=O)[C@@H](OC(C)=O)[C@@]4(C)C(C[C@@H]5O[C@]6(CCC(C)CO6)[C@@H](C)[C@@H]54)C3CC[C@H]2C1 (stereo not given in full) | 0.986 |
| CC(=O)O[C@H]1CC[C@]2(C)C3=CC(=O)[C@@]4(C)C(C[C@@H]5OC6(OCC(C)CC6Br)[C@@H](C)[C@@H]54)C3CC[C@H]2C1 (stereo not given in full) | 0.997 |
| COC(=O)c1c(C)cc(OC(=O)c2c(C)c(Cl)c(O)c(C=O)c2O)c(C)c1O | 0.981 |
| COc1cc(C)c(C(=O)Oc2cc(C)c(C(=O)O)c(O)c2C)c(OC)c1C | 1.01 |
| COc1cc([C@@H]2c3cc4c(cc3[C@H](OC(C)=O)[C@H]3COC(=O)[C@@H]23)OCO4)cc(OC)c1OC | 1.01 |

So, Nc1ccncc1 ? Its normalized growth was 0.956

So, CC1(C)C(=O)C=C[C@@]2(C)C1CC(=O)[C@@]1(C)C3=CC(=O)O[C@@H](c4ccoc4)[C@]3(C)CCC12 (stereo not given in full) ? Its normalized growth was 0.992

* * *

Assay: chemical genetic growth profiling, strain panel (AID 1159580);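 further: tested at 20 µM; growth read once vehicle control cultures reached saturation at 30 °C; 1 = growth at the plate median or of vehicle wells; lower values mean less growth of the strain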
Conditions: S. cerevisiae deletion strains, growth OD, locus YBR231C, strain swc5, active compounds read low
About 2,000 (36%) of roughly 5,500 compounds were called active. About 18% were inconclusive and are not listed. The list shows a part of the results.
normalized growth: recorded values
Just the number.

| COMPOUND | normalized growth |
| --- | --- |
| COc1ccc(C(=O)CC(=O)c2ccc(C(C)(C)C)cc2)cc1 | 0.997 |
| CC(=O)Nc1ccccc1 | 0.963 |

So, Cc1ncc([N+](=O)[O-])n1CC(C)O (stereo not drawn) ? Its normalized growth was 0.992

* * *

Experiment: chemical genetic growth profiling, strain panel (AID 1159580);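 further: tested at 20 µM; growth read once vehicle control cultures reached saturation at 30 °C; 1 = growth at the plate median or of vehicle wells; lower values mean less growth of the strain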
Conditions: S. cerevisiae deletion strains, growth OD, locus YDR388W
The whole screen tested about 5,500 compounds, of which about 2,000 (36%) were called active. Another 18% or so got no clear call; they are omitted. Cut-off read from the data, not from the text of the source: active = normalized growth mostly below about 0.91 (no sharp cut-off); inconclusive = no clear call, values can overlap the other calls; inactive = mostly above about 0.92. The list shows a part of the results.
Hello, when you answer, please use one of the following outcomes: active, inactive

Reference set, count: 8
| COMPOUND | CATEGORY |
| --- | --- |
| CN(C)N=Nc1nc[nH]c1C(N)=O | inactive |
| C=C1C2CC[C@@]3(C)[C@H](c4ccoc4)OC(=O)C[C@]13O[C@H]1CC(O)C(C)(C)C(CC(=O)OC)[C@@]21C (stereo partly specified) | inactive |
| NC(Cc1ccc(F)cc1)C(=O)O (stereo unspecified) | inactive |
| CC(=O)N=c1sc(S(N)(=O)=O)nn1C | inactive |
| Nc1cc(-c2ccncc2)c[nH]c1=O | active |
| C=C[C@H]1CN2CC[C@H]1C[C@@H]2[C@H](O)c1ccnc2ccccc12 | inactive |
| COc1ccc(C(=O)CC(=O)c2ccc(C(C)(C)C)cc2)cc1 | inactive |
| Cc1cc(C)cc(OCC2CNC(=O)O2)c1 (stereo unspecified) | inactive |

Turning to the following compound.
In: Would you mind telling me which call this test gave CC(CCC(=O)O)[C@H]1CCC2C3C(C[C@H](O)[C@@]21C)[C@@]1(C)CC[C@@H](O)C[C@H]1C[C@H]3O (stereo partly specified) ?
Out: inactive

* * *

Experiment: chemical genetic growth profiling, strain panel (AID 1159580);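 further: tested at 20 µM; growth read once vehicle control cultures reached saturation at 30 °C; 1 = growth at the plate median or of vehicle wells; lower values mean less growth of the strain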
Settings: S. cerevisiae deletion strains, growth OD, locus YPR167C, strain met16, active compounds read low
Out of some 5,500 compounds screened, about 2,000 (36%) were called active. Not shown: some 18% with an inconclusive outcome. This is one part of the list.
QUANTITY: normalized growth
Just the number.

Below, each entry is followed by its recorded normalized growth result.
| MOLECULE | QUANTITY | VALUE |
| --- | --- | --- |
| Cc1cc(O)c(C=O)c2c1C(=O)Oc1c(COC(=O)/C=C/C(=O)O)c(O)c(C(=O)O)c(C)c1O2 | normalized growth | 0.998 |
| O=c1cc(-c2cc(O)c(O)c(O)c2)oc2cc(O)cc(O)c12 | normalized growth | 1.01 |
| C[C@H](CCC(=O)O)[C@H]1CCC2C3C(CC[C@@]21C)[C@@]1(C)CC[C@@H](O)C[C@H]1C[C@@H]3O (stereo partly specified) | normalized growth | 0.987 |
| CC(CCC(=O)O)[C@H]1CCC2C3CC[C@@H]4C[C@H](O)CC[C@]4(C)C3CC[C@@]21C (stereo partly specified) | normalized growth | 0.991 |
| COC(=O)CCC(C)[C@H]1CCC2C3C(C[C@H](O)[C@@]21C)[C@@]1(C)CC[C@@H](O)C[C@H]1C[C@H]3O (stereo partly specified) | normalized growth | 1.03 |

So, CNC(=O)Oc1ccc2c(c1)[C@]1(C)CCN(C)[C@@H]1N2C ? Its normalized growth was 1.01

So, O=c1cc(-c2ccccc2)oc2c(O)c(O)ccc12 ? Its normalized growth was 0.993

So, Cc1cc(O)c(C)c2c1C(=O)Oc1c(C)c(O)c(C(=O)O)c(C)c1O2 ? Its normalized growth was 0.985

So, Cc1cc(C)cc(OCC2CNC(=O)O2)c1 (stereo unspecified) ? Its normalized growth was 1.01

So, O=c1cc(-c2ccccc2)oc2cc(O)cc(O)c12 ? Its normalized growth was 0.947

So, COc1cc(S(C)=O)ccc1-c1nc2ncccc2[nH]1 (stereo unspecified) ? Its normalized growth was 0.999

So, CC(C)CCCC(C)C1CCC2C3CC[C@H]4CCCC[C@]4(C)C3CC[C@]12C (stereo partly specified) ? Its normalized growth was 0.982

So, O=C(O)c1ccccc1C(=O)Nc1ccc(S(=O)(=O)Nc2nccs2)cc1 ? Its normalized growth was 0.997

So, Nc1ccncc1 ? Its normalized growth was 0.969

So, COc1cc(C(=O)O)c2c(c1C)OC(=O)c1c(C)cc(O)c(C=O)c1O2 ? Its normalized growth was 1.01

So, CC[C@H](CCC(C)[C@H]1CCC2C3CCC4C[C@@H](O)CC[C@]4(C)C3CC[C@@]21C)C(C)C (stereo partly specified) ? Its normalized growth was 1

So, Cc1cc(O)c(C=O)c2c1C(=O)Oc1c(C)c(O)c3c(c1O2)C(O)OC3=O (stereo unspecified) ? Its normalized growth was 0.983

So, N[C@@H]1[C@@H](O)[C@H](O)[C@@H](CO)O[C@H]1O ? Its normalized growth was 1.01

So, Cc1cc(=O)oc2c(O)c(O)ccc12 ? Its normalized growth was 1.02

So, CC(CCC(=O)O)[C@H]1CCC2C3C[C@H](O)[C@@H]4C[C@H](O)CC[C@]4(C)C3CC[C@@]21C (stereo partly specified) ? Its normalized growth was 1.02

So, C[C@]12C=CC(=O)C=C1CCC1C3C[C@@H](O)[C@](O)(C(=O)CO)[C@@]3(C)C[C@H](O)[C@@]12F (stereo partly specified) ? Its normalized growth was 0.979
